Taken from PubChem BioAssay AID330.

# Test system: P388 leukemia ip, CD2F1 mice, survival T/C
# assayOverview: NCI In Vivo Anticancer Drug Screen. Data for tumor model P388 Leukemia (intraperitoneal) in CD2F1 (CDF1) mice
# condition: endpoint: median survival time; dose: 200.0 mg/kg/injection; schedule: Q04DX002 (ip); vehicle: saline with Tween-80; higher = longer survival
Inconclusive results and toxic doses are left out.
Please provide measured T/C for the entries that follow.

-- ask Sample `Cn1c(CCC(=O)O)c(CC(=O)O)c2ccccc21` — what was its T/C?
-- reply 97 % of control

-- ask Sample `O=S1(=O)N=C(Sc2nc3ccccc3o2)c2ccccc21` — what was its T/C?
-- reply 107 % of control

-- ask Sample CC(=O)OCC1OC(N2C(=O)c3ccccc3S2(=O)=O)C(OC(C)=O)C(OC(C)=O)C1OC(C)=O (stereo unspecified) — what was its T/C?
-- reply 91 % of control

-- ask Sample `COc1cc(C[C@H]2CC(=O)O[C@@H]2CO)cc(OC)c1OC` — what was its T/C?
-- reply 96 % of control

-- ask Sample `COC(=O)c1ccc(C(=S)OC)cc1` — what was its T/C?
-- reply 100 % of control

-- ask Sample `Cc1cccc(N=Nc2c(C)nn(C(=S)S)c2C)c1C` — what was its T/C?
-- reply 99 % of control

###

# Tested on: P388 leukemia ip, CD2F1 mice, survival T/C
# assayOverview: NCI In Vivo Anticancer Drug Screen. Data for tumor model P388 Leukemia (intraperitoneal) in CD2F1 (CDF1) mice
# condition: endpoint: median survival time; dose: 60.0 mg/kg/injection; schedule: Q01DX005 (ip); vehicle: saline with Tween-80; higher = longer survival
Toxic doses and inconclusive results are not listed.
Please provide measured T/C for the entries that follow.

-- ask Find T/C (P388 leukemia ip, CD2F1 mice, survival T/C) for the entry CC(=O)C1C(=O)C(=O)N(c2ccc(S(N)(=O)=O)cc2)C1=O (stereo not drawn)
-- reply 103 % of control

-- ask Find T/C (P388 leukemia ip, CD2F1 mice, survival T/C) for the entry `N/C(CC(=O)Nc1ccc(F)cc1)=N\O`
-- reply 108 % of control

-- ask Find T/C (P388 leukemia ip, CD2F1 mice, survival T/C) for the entry CC(C=O)[Se]c1ccccc1 (stereo not drawn)
-- reply 100 % of control

-- ask Find T/C (P388 leukemia ip, CD2F1 mice, survival T/C) for the entry CC(C)(C)C(=O)NC(OC(NC(=O)C(C)(C)C)C(=O)C(C)(C)C)C(=O)C(C)(C)C (stereo not drawn)
-- reply 97 % of control

-- ask Find T/C (P388 leukemia ip, CD2F1 mice, survival T/C) for the entry `CC(=O)CC(=O)CCC(=O)Nc1cccc([N+](=O)[O-])c1`
-- reply 106 % of control

-- ask Find T/C (P388 leukemia ip, CD2F1 mice, survival T/C) for the entry `O=C1OI(Cl)c2ccccc21`
-- reply 104 % of control

-- ask Find T/C (P388 leukemia ip, CD2F1 mice, survival T/C) for the entry CCOC(=O)c1ccc(N2C(=O)C(Cl)(c3ccccc3)C2c2ccco2)cc1 (stereo not drawn)
-- reply 100 % of control

-- ask Find T/C (P388 leukemia ip, CD2F1 mice, survival T/C) for the entry `CSC(=N\N=C\c1c(F)cccc1Cl)/N=C/N(C)C`
-- reply 95 % of control

-- ask Find T/C (P388 leukemia ip, CD2F1 mice, survival T/C) for the entry `C[Si](C)(C)C#CC[Si](C)(C)C`
-- reply 97 % of control

-- ask Find T/C (P388 leukemia ip, CD2F1 mice, survival T/C) for the entry CCCCNC(=S)N/N=C1/CC(=O)N(c2ccccc2)C1c1ccccc1 (stereo not drawn)
-- reply 89 % of control

-- ask Find T/C (P388 leukemia ip, CD2F1 mice, survival T/C) for the entry `Cc1cc(=O)n2[nH]c(-c3ccco3)cc2n1`
-- reply 104 % of control

-- ask Find T/C (P388 leukemia ip, CD2F1 mice, survival T/C) for the entry `N#Cc1ccc(OC(=O)Nc2ccccc2C(F)(F)F)cc1`
-- reply 86 % of control

-- ask Find T/C (P388 leukemia ip, CD2F1 mice, survival T/C) for the entry CCCCCCCCCCCCCCCCC1=C(C(=O)OC)NC(N)=NC1O (stereo not drawn)
-- reply 103 % of control

-- ask Find T/C (P388 leukemia ip, CD2F1 mice, survival T/C) for the entry CC(=O)O[C@H]1CC[C@]2(C)C3CC[C@]4(C)C([C@H](C)CCCC(C)C)CCC4[C@]3(C#N)n3c(=O)n(-c4ccccc4)c(=O)n3[C@]2(C#N)C1 (stereo partly drawn)
-- reply 96 % of control

-- ask Find T/C (P388 leukemia ip, CD2F1 mice, survival T/C) for the entry `O=c1[nH]c(Nc2ccccc2)c([N+](=O)[O-])c(=O)[nH]1`
-- reply 106 % of control

-- ask Find T/C (P388 leukemia ip, CD2F1 mice, survival T/C) for the entry `O=C(Nc1ccc(Cl)cc1)Nc1nnc(-c2cccc(Cl)c2)o1`
-- reply 89 % of control

-- ask Find T/C (P388 leukemia ip, CD2F1 mice, survival T/C) for the entry Cc1nc2c(cc1C#N)C(Nc1ccc(Cl)cc1)Oc1ccc([N+](=O)[O-])cc1-2 (stereo not drawn)
-- reply 92 % of control

-- ask Find T/C (P388 leukemia ip, CD2F1 mice, survival T/C) for the entry `[N-]=[N+]=Nc1ccnc2cc(C(F)(F)F)ccc12`
-- reply 103 % of control

###

Please provide measured T/C for the entries that follow.
# Test system: P388 leukemia ip, CD2F1 mice, survival T/C
# assayOverview: NCI In Vivo Anticancer Drug Screen. Data for tumor model P388 Leukemia (intraperitoneal) in CD2F1 (CDF1) mice
# condition: endpoint: median survival time; dose: 50.0 mg/kg/injection; schedule: Q04DX003 (ip); vehicle: Klucel (hydroxypropylcellulose) (HPC); higher = longer survival
Toxic doses and inconclusive results are not listed.

-- ask Sample `Cc1ccc(OP(=O)(Oc2ccc(C)cc2)Oc2ccc(C)cc2)cc1.Cc1ccc(OP(=O)(Oc2ccc(C)cc2)Oc2ccc(C)cc2)cc1.[Cl][Cu][Cl]` — what was its T/C?
-- reply 99 % of control

-- ask Sample `O=c1c2ccccc2c(-c2ccc(N(CCCl)CCCl)cc2)cn1CCCl` — what was its T/C?
-- reply 114 % of control

-- ask Sample CC1CCC2(CC1C)C(=O)NC(=O)NC2=O (centres undefined) — what was its T/C?
-- reply 105 % of control

-- ask Sample NNc1c(C(N)=O)c2c(N)ncnc2n1C1OC(CO)C(O)C1O (centres undefined) — what was its T/C?
-- reply 115 % of control

###

# System: P388 leukemia ip, CD2F1 mice, survival T/C
# assayOverview: NCI In Vivo Anticancer Drug Screen. Data for tumor model P388 Leukemia (intraperitoneal) in CD2F1 (CDF1) mice
# condition: endpoint: median survival time; dose: 25.0 mg/kg/injection; schedule: Q04DX002 (ip); vehicle: saline with Tween-80
Inconclusive results and toxic doses are left out. How the source made its calls: active means survival T/C of 150% or more; inactive means T/C below 125% in these data.
Respond using exactly one of the listed classes: active, inactive

-- ask Please let me know the test result on file for `Cc1ccc([NH-])c([NH-])c1.[Cl][Pt+2][Cl]` .
-- reply active

-- ask Please let me know the test result on file for `CSC(/C=C1\C=Cc2ccccc2N1C)=N\S(=O)(=O)c1ccc(N)cc1` .
-- reply inactive

-- ask Please let me know the test result on file for `[O-][n+]1onc2ccccc21` .
-- reply inactive

-- ask Please let me know the test result on file for `Cc1c2ccncc2c(CNC(=O)CCCC(=O)NCc2c3cnccc3c(C)c3c2c2ccccc2n3C)c2c3ccccc3n(C)c12` .
-- reply inactive

-- ask Please let me know the test result on file for `CN=C(N)N/N=C(/C)c1cc2ccccc2c2ccccc12` .
-- reply inactive

-- ask Please let me know the test result on file for `COc1cc([C@@H]2c3cc4c(cc3C[C@@H]3COC(=O)[C@H]32)OCO4)cc(OC)c1OC` .
-- reply inactive

-- ask Please let me know the test result on file for `CCCCCCN=C(N)N/N=C(\C)c1ccc2c(c1)Cc1cc(/C(C)=N/NC(N)=NCCCCCC)ccc1-2` .
-- reply inactive

###

Please provide measured T/C for the entries that follow.
# System: P388 leukemia ip, CD2F1 mice, survival T/C
# assayOverview: NCI In Vivo Anticancer Drug Screen. Data for tumor model P388 Leukemia (intraperitoneal) in CD2F1 (CDF1) mice
# condition: endpoint: median survival time; dose: 30.0 mg/kg/injection; schedule: Q01DX005 (ip); vehicle: saline; higher = longer survival
Inconclusive results and toxic doses are left out.

-- ask Find T/C (P388 leukemia ip, CD2F1 mice, survival T/C) for the entry `CCN(CC)Cc1cc(Nc2cc(C)nc3ccc(N(C)C)cc23)ccc1O`
-- reply 100 % of control

-- ask Find T/C (P388 leukemia ip, CD2F1 mice, survival T/C) for the entry COC(=O)C(C)N(CCCl)P(=O)(N1CC1)N1CC1 (stereo unspecified)
-- reply 182 % of control

-- ask Find T/C (P388 leukemia ip, CD2F1 mice, survival T/C) for the entry `Cc1c(O)c2ccccc2c2c1sc(NCCCN(CCO)CCO)[n+]2C`
-- reply 110 % of control

-- ask Find T/C (P388 leukemia ip, CD2F1 mice, survival T/C) for the entry C[N+]12CCC34C5=CC(=O)C(=O)C=C5[N+]5(C)C(=O)CC6OCC=C(C1)C(CC32)C6C45 (stereo unspecified)
-- reply 97 % of control

-- ask Find T/C (P388 leukemia ip, CD2F1 mice, survival T/C) for the entry `COc1c2occc2c(CN)c2ccc(=O)oc12`
-- reply 97 % of control

-- ask Find T/C (P388 leukemia ip, CD2F1 mice, survival T/C) for the entry `C/C(=N/N=C(N)N)c1cnc(N/N=C(\C)c2cnc(NN)nc2C)nc1C`
-- reply 97 % of control
